test system: Acetylcholinesterase (Homo sapiens, UniProt P22303)
Sequence (P22303 whole entry): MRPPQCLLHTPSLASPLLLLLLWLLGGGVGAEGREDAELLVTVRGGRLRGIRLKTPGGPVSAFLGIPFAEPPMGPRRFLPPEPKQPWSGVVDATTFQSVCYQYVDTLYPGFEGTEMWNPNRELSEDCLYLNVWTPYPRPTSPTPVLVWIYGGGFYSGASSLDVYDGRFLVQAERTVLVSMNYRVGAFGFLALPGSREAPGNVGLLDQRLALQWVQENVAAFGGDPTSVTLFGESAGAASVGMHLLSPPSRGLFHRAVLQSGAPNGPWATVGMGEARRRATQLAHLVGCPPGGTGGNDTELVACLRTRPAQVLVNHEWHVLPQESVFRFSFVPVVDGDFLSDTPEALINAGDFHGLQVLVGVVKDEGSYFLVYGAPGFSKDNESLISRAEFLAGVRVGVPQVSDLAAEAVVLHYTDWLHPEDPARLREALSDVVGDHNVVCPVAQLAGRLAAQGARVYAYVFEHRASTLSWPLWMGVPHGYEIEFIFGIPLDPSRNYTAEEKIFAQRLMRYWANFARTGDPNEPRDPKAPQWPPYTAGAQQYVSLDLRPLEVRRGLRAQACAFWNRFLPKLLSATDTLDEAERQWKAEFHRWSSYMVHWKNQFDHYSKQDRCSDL
procedure details: In vitro inhibitory activity against human recombinant AChE
pIC50: −log10 of the molar value.
measured attribute: pIC50

Requested read-out: pIC50. Entry: "COc1cccc(C[N+](C)(C)Cc2ccccc2)c1" < 5.00

Requested read-out: pIC50. Entry: "CC(=O)Oc1cccc([N+](C)(C)Cc2ccccc2)c1" < 5.00

Requested read-out: pIC50. Entry: "C=CC[N+](C)(C)c1cccc(O)c1" 5.52

Requested read-out: pIC50. Entry: "C=CC[N+](C)(C)c1ccc(OCC(=O)c2ccc(OC)c(OC)c2)cc1" 5.00

Requested read-out: pIC50. Entry: "COc1ccccc1[N+](C)(C)Cc1ccccc1" < 5.00

Requested read-out: pIC50. Entry: "COc1cccc([N+](C)(C)Cc2ccccc2)c1" < 5.00

Requested read-out: pIC50. Entry: "COc1ccc(C(=O)COc2cccc([N+](C)(C)Cc3ccccc3)c2)cc1OC.[Br-]" 6.48

Requested read-out: pIC50. Entry: "C=CCC[N+](C)(C)c1ccccc1O" 5.00

Requested read-out: pIC50. Entry: "C=CC[N+](C)(C)c1ccc(O)cc1" < 5.00

Requested read-out: pIC50. Entry: "COc1ccc(C(=O)CCc2ccc([N+](C)(C)Cc3ccccc3)cc2)cc1OC" 5.89

Requested read-out: pIC50. Entry: "C=CC[N+](C)(C)c1ccc(OC)cc1" < 5.00

* * *

test system: Acetylcholinesterase (Homo sapiens, UniProt P22303)
procedure details: In vitro inhibitory activity against human recombinant AChE
pIC50: −log10 of the molar value.
measured attribute: pIC50

# example entries with known answers
item smiles: COc1ccc(C(=O)CCc2cccc([N+](C)(C)Cc3ccccc3)c2)cc1OC
measured attribute: pIC50
value measured: 5.98
//
item smiles: C=CC[N+](C)(C)c1cccc(OC(C)=O)c1
measured attribute: pIC50
value measured: 6.00
//
item smiles: C=CC[N+](C)(C)Cc1cccc(OC)c1
measured attribute: pIC50
value measured: < 5.00
//
item smiles: COc1ccc(C(=O)COc2ccc([N+](C)(C)Cc3ccccc3)cc2)cc1OC
measured attribute: pIC50
value measured: 5.00
//
item smiles: C=C(C)C[N+](C)(C)c1ccc(O)cc1
measured attribute: pIC50
value measured: < 5.00
//
item smiles: C[N+](C)(C)Cc1cccc(O)c1
measured attribute: pIC50
value measured: < 5.00
//
item smiles: C[N+](C)(Cc1ccccc1)c1ccccc1O
measured attribute: pIC50
value measured: < 5.00
//
item smiles: C=CC[N+](C)(C)c1ccccc1OC.[Br-]
measured attribute: pIC50
value measured: 6.00

Requested read-out: pIC50. Entry: "C=C(C)C[N+](C)(C)c1ccccc1O" < 5.00

Requested read-out: pIC50. Entry: "CC(=O)Oc1ccc([N+](C)(C)Cc2ccccc2)cc1" < 5.00

Requested read-out: pIC50. Entry: "COc1ccc(C(=O)CCc2cccc([N+](C)(C)C)c2)cc1OC" < 5.00

Requested read-out: pIC50. Entry: "COc1ccc(C(=O)COc2cccc([N+](C)(C)C)c2)cc1OC" 5.00

Requested read-out: pIC50. Entry: "C=C(C)C[N+](C)(C)c1ccccc1OC" < 5.00

* * *

Organism: Cavia porcellus
procedure details: In vitro potency in reversing vecuronium-induced block in guinea pig hemidiaphram
Type: functional
measured attribute: pIC50
Lab note: report pIC50 as minus log10 of the concentration in molar units, number only.

# example entries with known answers
item smiles: COc1ccc(C(=O)COc2ccc([N+](C)(C)C)cc2)cc1OC
pIC50: 5.01
//
item smiles: COc1ccc(C(=O)COc2cccc([N+](C)(C)Cc3ccccc3)c2)cc1OC.[Br-]
pIC50: 5.77
//
item smiles: COc1ccc(C(=O)COc2ccc([N+](C)(C)Cc3ccccc3)cc2)cc1OC
pIC50: 4.71
//
item smiles: C=CC[N+](C)(C)c1cccc(O)c1
pIC50: 4.89
//
item smiles: COc1ccc(C(=O)CCc2ccc([N+](C)(C)C)cc2)cc1OC
pIC50: 5.70

# input for lookup
Requested read-out: pIC50. Entry: "C=CC[N+](C)(C)c1ccc(OCC(=O)c2ccc(OC)c(OC)c2)cc1" 6.30

* * *

Recorded pIC50 values for a group of compounds are listed next.
Species: Cavia porcellus
procedure details: In vitro potency in reversing vecuronium-induced block in guinea pig hemidiaphram
Assay type: functional
pIC50: −log10 of the molar value.

# example entries with known answers
compound: C=C(C)C[N+](C)(C)c1ccccc1OC
pIC50: < 5.52
//
compound: C=C(C)C[N+](C)(C)c1cccc(O)c1
pIC50: < 5.52
//
compound: C[N+](C)(Cc1ccccc1)c1cccc(O)c1
pIC50: < 5.52
//
compound: CC(=O)Oc1ccc([N+](C)(C)Cc2ccccc2)cc1
pIC50: < 5.52
//
compound: COc1ccc(C(=O)COc2cccc([N+](C)(C)C)c2)cc1OC
pIC50: 5.15
//
compound: CC[N+](C)(C)c1cccc(O)c1.[Br-] [EDROPHONIUM BROMIDE]
pIC50: 5.56
//
compound: C=CC[N+](C)(C)c1ccccc1OC.[Br-]
pIC50: 5.54
//
compound: C=CC[N+](C)(C)c1ccccc1O.[Br-]
pIC50: 4.13

Requested read-out: pIC50. Entry: "C=CC[N+](C)(C)c1cccc(OC(C)=O)c1" 5.41

Requested read-out: pIC50. Entry: "C[N+](C)(Cc1ccccc1)c1ccccc1O" < 5.52

* * *

Recorded pIC50 values for a group of compounds are listed next.
test system: UniProt:P22303
procedure details: In vitro inhibitory activity against human recombinant AChE
pIC50: −log10 of the molar value.

# example entries with known answers
item smiles: C[N+](C)(Cc1ccccc1)c1cccc(O)c1
test system: UniProt:P22303
pIC50: < 5.00

item smiles: COc1ccc(C(=O)CCc2ccc([N+](C)(C)C)cc2)cc1OC
test system: UniProt:P22303
pIC50: 5.52

item smiles: CC(=O)Oc1ccccc1[N+](C)(C)Cc1ccccc1
test system: UniProt:P22303
pIC50: < 5.00

item smiles: COc1ccc(C(=O)COc2ccc([N+](C)(C)C)cc2)cc1OC
test system: UniProt:P22303
pIC50: 5.00

item smiles: COc1cccc(C[N+](C)(C)C)c1
test system: UniProt:P22303
pIC50: < 5.00

Requested read-out: pIC50. Entry: "C=CC[N+](C)(C)Cc1cccc(O)c1" < 5.00

Requested read-out: pIC50. Entry: "C=C(C)C[N+](C)(C)c1cccc(O)c1" < 5.00

* * *

Recorded IC50 values for a group of compounds are listed next.
Organism: Cavia porcellus
procedure details: In vitro potency in reversing vecuronium-induced block in guinea pig hemidiaphram
Format: functional

# example entries with known answers
compound: C=C(C)C[N+](C)(C)c1cccc(OC)c1
IC50: > 3000 nM
--
compound: COc1ccc(C(=O)CCc2cccc([N+](C)(C)Cc3ccccc3)c2)cc1OC
IC50: > 3000 nM
--
compound: C=CC[N+](C)(C)Cc1cccc(OC)c1
IC50: > 3000 nM
--
compound: CN(C)C(=O)Oc1cccc([N+](C)(C)C)c1.[Br-] [NEOSTIGMINE BROMIDE]
IC50: 28 nM
--
compound: C[N+](C)(Cc1ccccc1)c1ccc(O)cc1
IC50: > 3000 nM
--
compound: C[N+](C)(C)Cc1cccc(O)c1
IC50: > 3000 nM
--
compound: C=C(C)C[N+](C)(C)c1ccc(O)cc1
IC50: > 3000 nM
--
compound: C=CC[N+](C)(C)c1ccc(OC)cc1
IC50: > 3000 nM
--
compound: CC(=O)Oc1cccc([N+](C)(C)Cc2ccccc2)c1
IC50: > 3000 nM
--
compound: C=CCC[N+](C)(C)c1ccccc1O
IC50: > 10000 nM

Requested read-out: IC50. Entry: "COc1cccc([N+](C)(C)Cc2ccccc2)c1" > 3000 nM

Requested read-out: IC50. Entry: "C=CC[N+](C)(C)c1ccc(OC(C)=O)cc1" > 3000 nM

Requested read-out: IC50. Entry: "COc1ccccc1[N+](C)(C)Cc1ccccc1" > 3000 nM

Requested read-out: IC50. Entry: "COc1ccc(C(=O)CCc2ccc([N+](C)(C)Cc3ccccc3)cc2)cc1OC" 4110 nM
